Values compiled from PubChem BioAssay (NCI).

Test system: HOP-62 NSCLC
Experiment: NCI-60 one-dose screen, 48 h (100 = growth as untreated, 0 = no growth, -100 = all killed)
Details: 10 µM unless noted
Compounds without any hit were thinned out: in the full panel of roughly 83,000, 20% have a hit.
property: growth (%)
Answers are plain numbers, in %.

I'm hoping you can list growth for every compound here, please.
1. CN(C[C@H]1Cc2c(cccc2N2CCN(Cc3ccccn3)CC2)CN1)[C@H]1CCCc2cccnc21
2. COC(=O)c1nc(-c2ccccc2)oc1S(=O)(=O)N1CCN(c2cccc(Cl)c2)CC1
3. COc1ccc(Nc2[nH]n3c(=O)cc(C)nc3c2C(N)=O)c(OC)c1

output:
39.1
83
85.9

I'm hoping you can list growth for every compound here, please.
1. COc1ccc(-c2c(-c3cc(OC)c4c(c3)OCO4)noc2N)cc1
2. O=C(NCCNc1nccc(-n2ccc3cccnc32)n1)c1ccc(C(F)(F)F)cc1

output:
10.3
99.2

I'm hoping you can list growth for every compound here, please.
1. CC1=C(C#N)C(=O)NC(C)C1 (stereo not given)
2. NC1=NN(O)C2=CC([N+](=O)[O-])C=CC2=N1 (stereo not given)
3. c1ccc(Nc2nc(Nc3ccccc3)nc(Nc3ccccc3)n2)cc1
4. COc1ccc(C(=O)NC(=O)Nc2cc3c(cc2F)/C(=C/c2[nH]c(C)c(CCC(=O)O)c2C)C(=O)N3)c(F)c1
5. COc1cc(/C=C/C(=O)c2ccc(Nc3ncnc4cc(OC)c(OC)cc34)cc2)cc(OC)c1
6. C=C(C)[C@@H]1CC[C@]2(C(=O)O)CC[C@]3(C)[C@H](CC[C@@H]4[C@@]5(C)C[C@@H](CC#Cc6ccc(C(F)(F)F)cc6)[C@H](O)C(C)(C)[C@@H]5CC[C@]43C)[C@@H]12
7. COc1ccc(-c2ccc(C)n2-c2ccc(-c3nc4ccccc4s3)cc2)cc1

output:
[99.4, 98.9, 90.6, 25.8, 116, 10, 87.6]

I'm hoping you can list growth for every compound here, please.
1. CCOC(=O)c1c(/N=C2\SC(=O)/C(=C\C(=O)OC)N2NC)sc2c1CCN(C(=O)OCC)C2
2. CC(C)(C)OC(=O)NC(CSCc1ccccc1)C(=O)ON1C(=O)CCC1=O (stereo not given)
3. COc1ccc(N2CCN(Cc3cc(C(=O)/C=C/c4c[nH]c5ccccc45)ccc3O)CC2)cc1
4. COc1ccncc1S(=O)(=O)NC(=O)Nc1ccc(Cl)c(Cl)c1
5. COc1ccc(C(=O)N2NC(=O)/C(=C/c3ccc(F)cc3)N=C2c2ccccc2)cc1
6. Cc1c(C(=O)/C=C/c2csc3ccccc23)[n+](=O)c2ccccc2n1[O-]
7. N/C(=N\C(N)=N\c1nc2ccccc2s1)c1ccncc1

output:
1. 99.2
2. 105
3. 89
4. 83.9
5. 99.3
6. 98.7
7. 60.7

input: Quick one: growth of `C=CCSc1n[nH]c(-c2cccs2)n1` ?
output: 94.3

* * *

Tested on: IGROV1 ovarian
Assay: NCI-60 one-dose screen, 48 h (100 = growth as untreated, 0 = no growth, -100 = all killed)
Details: 10 µM unless noted
Method: Growth inhibition of the IGROV1 human tumor cell line is measured as a screen for anti-cancer activity. Cells are grown in 96 well plates and exposed to the test compound for 48 hours. Compounds are tested at a single concentration, which is 10^-5 M for most compounds. The reported endpoint is percent growth (GI% or GIPRCNT), where numbers from 0 - 100% represent growth inhibition, and numbers from -100% - 0 represent cell death. For example, a value of 40 represents 60% growth inhibition. […]
This is part of a sample that, as a whole, favours compounds with a hit. Of some 83,000 tested, about 20% had one in any assay.
Criterion: growth strictly under 50%. Met: label 1. Not met: label 0.

// below: answered molecules
molecule	target	qualitative.label
CCO/C=N/C1=C(C#N)C(c2ccc(Cl)cc2)c2c(c3ccccc3n(C)c2=O)O1 (stereo not given)	IGROV1 ovarian	label 0
N=C(N)c1ccc(-c2ccc(-c3ccc(-c4cccs4)s3)s2)cc1	IGROV1 ovarian	label 0
Cc1c(C(=N)C(C#N)C#N)c(=N)oc2c1ccc1ccccc12	IGROV1 ovarian	label 1
COc1ccc(-c2nc(/C=C3/C(=O)Nc4ccc(F)cc43)c3ccccn23)cc1	IGROV1 ovarian	label 0
C/C=C/C1=CN2C(=O)c3cc(OC4OC(C)C(NC)C(C)(O)C4O)c(C)cc3N=C[C@@H]2C1 (stereo not given in full)	IGROV1 ovarian	label 1
CCN(CC)c1ccc(/C=C2\Oc3ccc(O)c(I)c3C2=O)cc1	IGROV1 ovarian	label 1

input: Say whether its growth is strictly beneath 50%. Entry: COc1ccc(C2NN=C3c4ccccc4CCC32)cc1 (stereo not given)
output: label 1

input: Say whether its growth is strictly beneath 50%. Entry: NC1=NN(O)C2=CC([N+](=O)[O-])C=CC2=N1 (stereo not given)
output: label 0

input: Say whether its growth is strictly beneath 50%. Entry: `c1ccc(Nc2nc(Nc3ccccc3)nc(Nc3ccccc3)n2)cc1`
output: label 0

* * *

Tested on: SK-MEL-28 melanoma
Test: NCI-60 one-dose screen, 48 h (100 = growth as untreated, 0 = no growth, -100 = all killed)
Details: 10 µM unless noted
The panel holds about 83,000 compounds, 20% with a hit somewhere; the sample as a whole holds those more often.
property: growth (%)
Numbers only, in %.

// below: answered compounds
compound	property	unit.info	quantitative.readout
N#Cc1c(-c2ccccc2)nc(SCC(=O)N2CCN(c3ccccc3)CC2)[nH]c1=O	growth	%	116
Oc1ccccc1/C=N/NC(=S)NC1CC2C=CC1C2 (stereo unspecified)	growth	%	83.1
C=C[C@@H]1C[C@H](O)Cc2cc(F)ccc2N1	growth	%	98.7
Cc1cc(N/N=C/c2nc(-c3ccc(Br)cc3)oc2C)c2cc(Br)ccc2n1	growth	%	24.7
COc1cc(/C=C/c2cc(/C=C/c3ccc(O)c(OC)c3)n(C(N)=O)n2)ccc1O	growth	%	-24.6
Cn1ccc(=O)c(S(N)(=O)=O)c1	growth	%	116
COc1ccc(CN2CCc3c(Sc4ccccc4)nc(N)nc3C2=O)c(OC)c1	growth	%	90.9
C=COC(=O)CCCCCCCCC	growth	%	106

I'm hoping you can list growth for every compound here, please.
1. CCOC(=O)c1ccc(NC(=O)N2CC(C)OC(C)C2)cc1 (stereo unspecified)
2. COc1ccc(C2C(C#N)=C(N)Oc3c2ccc2ccccc32)cc1 (stereo unspecified)
3. OC(c1cc2cc(Br)ccc2c2cc(Br)ccc12)C1CCCCN1 (stereo unspecified)
4. CC(C)(C)n1cc(-c2ccnc(NCCCNS(=O)(=O)c3ccc(Br)cc3)c2)c(-c2cccc(O)c2)n1
5. Cc1ccc(S(=O)(=O)/C(=C\c2ccc(Cl)cc2)C(=O)c2ccccc2)cc1
6. CCNc1nc(S(=O)(=O)CC)nc2ccccc12
7. O=C(O)/C=C/C(=O)c1ccc(Cl)cc1

output:
98.5
52.2
-93.2
-32.1
100
108
115

I'm hoping you can list growth for every compound here, please.
1. O=C(CN1CCN(c2cc3c(cc2F)c(=O)c(C(=O)N/N=C/c2ccccc2O)cn3C2CC2)CC1)N/N=C\c1ccccc1O
2. COc1ccc2c(c1)[nH]c(=O)c1c3cccc(F)c3cn21

output:
[20.7, 61.4]

I'm hoping you can list growth for every compound here, please.
1. O=C(/C=C/c1cc(-c2ccc3c(c2)OCO3)n[nH]1)c1ccc2c(c1)OCO2
2. COc1ccc(-n2c(=S)sc3c(Cl)nc(C)nc32)c(OC)c1
3. CN(C)CCCN(c1nc(C(Cl)(Cl)Cl)ns1)c1nc(C(Cl)(Cl)Cl)ns1

output:
1: 109; 2: -3.3; 3: 51.9

I'm hoping you can list growth for every compound here, please.
1. N[C@H]1CN(C(=O)c2cc3cc(Br)c(F)c(F)c3[nH]2)C[C@@H]1O
2. Brc1ccc(-c2[nH]ncc2-c2c[nH]c3ccccc23)cc1
3. N#Cc1ccc(N2Cc3ccccc3OC3=C2C(=O)c2c(O)ccc(O)c2C3=O)cc1
4. OCc1ncc(-c2ccccc2)s1
5. NC(=N\N=C/c1ccc(O)cc1)/C(N)=N\N=C/c1ccc(O)cc1
6. Cc1c(C(N)=O)sc2c1c(=O)n(Cc1ccccc1)c1nnc(Nc3ccccc3)n21
7. Cc1ccc(-c2cc3nc(C(Cl)Cl)nc(-c4cccnc4)n3n2)cc1

output:
106
107
-32.2
132
88.2
109
53.2

I'm hoping you can list growth for every compound here, please.
1. Cc1ccc2nc(Cl)cc(=O)n2c1
2. O=C(Nc1ccc(Cl)c(Cl)c1)NS(=O)(=O)c1cnccc1Oc1ccc(F)cc1
3. COc1cc(-c2nn(-c3cccc(NC(=O)c4ccc(N5CCOCC5)c(C(F)(F)F)c4)c3)cc2-c2ccncc2)ccc1Cl
4. O=C(Nc1cccc(-n2cc(-c3ccncc3)c(-c3ccc(Cl)c(O)c3)n2)c1)Nc1ccc(Cl)c(C(F)(F)F)c1
5. C=C1CCC2C(C)(CO)C(O)CCC2(C)C1C/C=C1/C(=O)OCC1O/C=C/c1ccccc1 (stereo unspecified)

output:
[120, 94.5, 28.4, -31.5, 93.3]

I'm hoping you can list growth for every compound here, please.
1. N#C/C(=C1C=C/C(=N/O)C(Cl)=C/1)c1ccc(Cl)cc1
2. CCCC(=O)Oc1ccc(/C(=C(\C)c2ccccc2)c2ccc(OCCN(CC)CC)cc2)cc1

output:
[101, 68.3]

I'm hoping you can list growth for every compound here, please.
1. COc1ccccc1CNCCCN1C(=O)c2ccc3c4c(ccc(c24)C1=O)C(=O)N(CCCNCCCCNCCCN)C3=O
2. Cn1ncc2c(Sc3ccc(Cl)cc3)ncnc21
3. O=C(Nc1cccc(-n2cc(-c3ccncc3)c(-c3ccc(Cl)c(O)c3)n2)c1)c1ccccc1
4. COc1cc2c(c(OC)c1OC)-c1ccc(N)c(=O)cc1[C@@H](NC(C)=O)CC2
5. C=C1CCC2C3(C)COC(c4ccc(N(C)C)cc4)OC3CCC2(C)C1C/C=C1/C(=O)OCC1O (stereo unspecified)

output:
1. -75.7
2. 102
3. 48.1
4. 61.8
5. 94.9

I'm hoping you can list growth for every compound here, please.
1. CCCCCCCC[C@@H](O)CC(=O)N[C@@H](CC(N)=O)C(=O)N[C@@H](CCC(N)=O)C(=O)N[C@@H](CC(=O)c1cc(C)cc(O)c1C(=O)c1c(O)cccc1O)CC(C)C
2. CCN(CC)c1ccc(CNc2ccnc3ccccc23)cc1

output:
[28.5, 80.4]
